- Tested on: Plutella xylostella
- measurement_protocol: Insecticidal activity against Plutella xylostella (diamondback moth) […] larvae infested on compound pre-treated fresh cabbage leaves assessed as larvicidal activity at 20 mg/L measured 3 days post treatment
- Type: functional
We begin with a simple list: items and their reported mortality at 20 µg/mL.
measured_property: mortality at 20 µg/mL (%)

> print(dat)
                                   compound  obs.value
1  O=C(NC(=O)c1c(F)cccc1F)Nc1ccc(-c2cc(COCC(F)(F)F)on2)cc1          0
2  O=C(NC(=O)c1c(F)cccc1F)Nc1ccc(C2=NOC(c3ccccc3)C2)cc1 (stereo not given)         30
3  CC(C)(C)C1=NOC(c2ccc(NC(=O)NC(=O)c3c(F)cccc3F)cc2)C1 (stereo not given)        100
4  O=C(NC(=O)c1c(F)cccc1F)Nc1ccc(C2=NOC(CBr)C2)cc1 (stereo not given)          0
5  O=C(NC(=O)c1c(F)cccc1F)Nc1ccc(C2CC(c3ccc(F)cc3)=NO2)cc1 (stereo not given)         70
